This collection of values is drawn from the supplement of paper PMC11451515.

System: SEM cells
Assay: cell viability relative to DMSO control; higher = less cytotoxic
Conditions: HPLM + 10% dialyzed FBS; 48 h; 15.4 µM
Lab note - cut at 90% for cell viability: y if strictly below, n if not.

{"molecule": "CCOc1cc2c(c(F)c1OCC)C(=N)N(CC(=O)c1cc(N3CCOCC3)c(OC)c(C(C)(C)C)c1)C2", "class_assignment": "n"}
{"molecule": "O=C(C1CCCCC1)N1CC(=O)N2CCc3ccccc3C2C1 (configuration not stated)", "class_assignment": "y"}
{"molecule": "Cc1nc2c([nH]1)-c1ccccc1N(C(=O)c1ccc(NC(=O)c3ccccc3-c3ccccc3)cc1)CC2", "class_assignment": "n"}
{"molecule": "C[C@@H]1O[C@@H](O[C@H]\\2CC[C@]\\3(C)[C@@H]4CC[C@]5(C)[C@@H](CC[C@@]5(O)[C@H]4CCC3=C2)C/6=C/OC(=O)/C=C6)[C@H](O)[C@H](O)[C@@H]1O", "class_assignment": "y"}

Q: Confirm or reject: cell viability of CNC(=O)c1c(F)cccc1Nc1nc(Nc2cc3c(cc2OC)CCN3C(=O)CN(C)C)nc2[nH]ccc12 lies strictly below 90%
Result: y

Q: Threshold test, cell viability < 90%: CCC(=O)O[C@@]1([C@H](C)C[C@H]2[C@@H]3C[C@H](F)\C4=C\C(=O)\C=C/[C@]4(C)[C@@]3(F)[C@@H](O)C[C@]12C)C(=O)SCF
Result: y

====

Test system: P12-Ichikawa
Test: cell viability relative to DMSO control; higher = less cytotoxic
Conditions: RPMI 5 mM glucose + 10% dialyzed FBS; 48 h; 0.000781 µM
assay_endpoint: cell viability (%)
Please respond with the number in % and leave the unit unwritten.

{"compound": "CCOC(=O)c1ccc(C#Cc2ccc3c(c2)C(C)(C)CCS3)nc1", "measure_unit": "%", "observed_result": 98.8}
{"compound": "CC(C)[C@H](CO)Nc1nc(Nc2ccc(C(=O)O)c(Cl)c2)c2ncn(C(C)C)c2n1", "measure_unit": "%", "observed_result": 119}
{"compound": "CN(C)[C@H]\\1[C@@H]2[C@@H](O)[C@@H]\\3C(=C)C4=C(C(=CC=C4)O)C(=O)C3=C(\\O)[C@@]2(O)C(=O)\\C(=C1O)C(N)=O", "measure_unit": "%", "observed_result": 126}
{"compound": "C[C@H]1[C@@H](CC(C[C@H]2O[C@@H]3O[C@]4(C)CC[C@H]5[C@H](C)CC[C@@H]([C@H]2C)[C@@]35OO4)C[S+](=O)([O-])c2ccc(COC(=O)N(C)C)cc2)O[C@@H]2O[C@]3(C)CC[C@H]4[C@H](C)CC[C@@H]1[C@@]24OO3", "measure_unit": "%", "observed_result": 118}
{"compound": "COc1ccc(Cn2ccc3ccc(C(=O)NO)cc32)cc1", "measure_unit": "%", "observed_result": 116}

Q: # cell viability lookup, item CC(=O)SCC(Cc1ccccc1)C(=O)NCC(=O)OCc1ccccc1 (configuration not stated)
Result: 85.3

Q: Given the entry O=P(O)(O)C(O)(Cc1cccnc1)P(=O)(O)[O][Na] (configuration not stated) , report its measured cell viability.
Result: 85.3

====

Tested on: SEM cells
Assay: cell viability relative to DMSO control; higher = less cytotoxic
Settings: HPLM + 10% dialyzed FBS; 48 h; 0.000781 µM
Listing: cell viability of selected compounds
# unit: % | format: bare number

# count of solved cases: 2
{"compound": "Cc1ccccc1C(C(=O)NC1CCCCC1)N(C(=O)CNc1ccc(C#N)cc1)c1cccc(F)c1 (stereo not drawn)", "cell viability / %": 88.7}
{"compound": "NC\\1=N\\C(=O)N(\\C=N1)[C@H]2C[C@H](O)[C@@H](CO)O2", "cell viability / %": 57.8}

Q: Give cell viability (SEM cells) of the following compound: Nc1ccc([S+](=O)([O-])Nc2ccccn2)cc1
Result: 77.7

Q: // fetch SEM cells cell viability for COc1ccc(Cn2ccc3ccc(C(=O)NO)cc32)cc1
Result: 102

====

Items are presented alongside their recorded cell viability.
System: NOMO1
Assay: cell viability relative to DMSO control; higher = less cytotoxic
Details: HPLM + 10% dialyzed FBS; 48 h; 0.569 µM
Give a bare numeral; the unit % is implied.

Illustrative cases are given below, each with its answer.
{"compound": "NC12CC3CC(CC(C3)C1)C2", "cell viability [%]": 111}
{"compound": "O=C1[O][Pt]2([NH]C3CCCCC3[NH]2)[O]C1=O (centres undefined)", "cell viability [%]": 131}
{"compound": "c1cc(-c2sc(-c3ccncc3)c(-c3ccncc3)c2-c2ccncc2)ccn1", "cell viability [%]": 140}

Q: Return reported cell viability; argument: CCCCc1oc2ccc(NS(C)(=O)=O)cc2c1C(=O)c1ccc(OCCCN(CCCC)CCCC)cc1
Result: 114

Q: Fill in the blank: the reported cell viability of CCOc1ccccc1OCCNC(C)Cc1ccc(OC)c([S+](N)(=O)[O-])c1 (centres undefined) is ____.
Result: 120

====

Test system: P12-Ichikawa
Assay: cell viability relative to DMSO control; higher = less cytotoxic
Details: RPMI 5 mM glucose + 10% dialyzed FBS; 48 h; 0.00234 µM
assay_endpoint: cell viability (%)
Entry rule: numbers only, all in %.

{"compound": "CCCn1c(=O)c2[nH]c(-c3cnn(Cc4cccc(C(F)(F)F)c4)c3)nc2n(CC)c1=O", "observed_result": 109}
{"compound": "NC/1=N/C(=O)N(/C=C1)[C@H]2CC[C@@H](CO)O2", "observed_result": 87.9}
{"compound": "O=P(O)(O)C(O)(Cc1cccnc1)P(=O)(O)[O][Na] (stereo not given)", "observed_result": 91.3}
{"compound": "CC1=C(C)C2=C(S1)[N]3C(=NN=C3[C@H](CC(=O)OC(C)(C)C)/N=C2/C4=CC=C(Cl)C=C4)C", "observed_result": 92.2}

Below: the item to evaluate.
Q: Returns the measured cell viability for the input compound. Input: CCC(CC)[C@H](NC(C)=O)[C@@H]1[C@H](O)[C@@H](C(=O)O)C[C@H]1NC(=N)N
Result: 82.1

====

Test system: SEM cells
Experiment: cell viability relative to DMSO control; higher = less cytotoxic
Conditions: HPLM + 10% dialyzed FBS; 48 h; 0.00234 µM
assay_endpoint: cell viability (%)
Lab book: enter the figure in %, no units written.

In the examples that follow, each entry is paired with its recorded cell viability.
{"compound": "c1cc(-c2sc(-c3ccncc3)c(-c3ccncc3)c2-c2ccncc2)ccn1", "target": "SEM cells", "cell viability / %": 107}
{"compound": "COc1ccc(CCC(=O)Nc2nc3ccc(Cl)cc3s2)cc1OC", "target": "SEM cells", "cell viability / %": 114}
{"compound": "CC(=O)SCC(Cc1ccccc1)C(=O)NCC(=O)OCc1ccccc1 (stereo not given)", "target": "SEM cells", "cell viability / %": 79.1}
{"compound": "CCOc1ccccc1OCCNC(C)Cc1ccc(OC)c([S+](N)(=O)[O-])c1 (stereo not given)", "target": "SEM cells", "cell viability / %": 82.9}
{"compound": "C[C@@H]1CN(CC(=O)N2CC(C)(C)c3ncc(Cc4ccc(F)cc4)cc32)[C@@H](CN2CCOC[C@H]2C)CN1", "target": "SEM cells", "cell viability / %": 105}
{"compound": "C=C1C[C@@]2(O)O[C@@]3(C[C@H]2C(C)C)[C@@H](C)CC[C@@H]13", "target": "SEM cells", "cell viability / %": 85.5}

Q: Consider the compound shown here: COc1ccc(Cn2ccc3ccc(C(=O)NO)cc32)cc1 What is its recorded cell viability?
Result: 107

Q: What measured cell viability goes with CCOc1cc2c(c(F)c1OCC)C(=N)N(CC(=O)c1cc(N3CCOCC3)c(OC)c(C(C)(C)C)c1)C2 ?
Result: 95.6

Q: Value lookup for cell viability; key = COC1=CC=C2C(=CC=NC2=C1)OC3=CC=C(NC(=O)\C4=C(C)\N(CC(C)(C)O)N(C4=O)C5=CC=CC=C5)C=C3F
Result: 99.9

Q: Give its cell viability value. Item: O=C(NC1CC1)c1cccc(-c2ccc3c(NC(=O)C4CC4)n[nH]c3c2)c1
Result: 98.1

====

Test system: SEM cells
Assay: AUC of viability dose-response curve (% viability x log10 dose units); higher = less sensitive
Settings: RPMI 5 mM glucose + 10% FBS; 48 h
assay_endpoint: AUC of viability dose-response curve
Answer with a bare number; do not write a unit.

Please review the following examples before continuing.
{"compound": "O=P(O)(O)C(O)(Cc1cccnc1)P(=O)(O)[O][Na] (stereo not drawn)", "target": "SEM cells", "observed_result": 409}
{"compound": "COC1=C(OC)C(=O)C(C/C=C(\\C)CC/C=C(\\C)CC/C=C(\\C)CC/C=C(\\C)CC/C=C(\\C)CC/C=C(\\C)CC/C=C(\\C)CC/C=C(\\C)CC/C=C(\\C)CCC=C(C)C)=C(C)C1=O", "target": "SEM cells", "observed_result": 469}
{"compound": "Cc1cnc(Nc2ccc(OCCN3CCCC3)cc2)nc1Nc1cccc([S+](=O)([O-])NC(C)(C)C)c1", "target": "SEM cells", "observed_result": 458}
{"compound": "COc1ccc(CCC(=O)Nc2nc3ccc(Cl)cc3s2)cc1OC", "target": "SEM cells", "observed_result": 461}

Could you now look at the following compound, please?
Q: Which AUC of viability dose-response curve value belongs to Cn1cc(-c2ccncc2)c(-c2ccc(OCc3ccc4ccccc4n3)cc2)n1 ?
Result: 445
